- Tested on: SK-MEL-2 melanoma
- Procedure Summary: NCI tumour cell line growth inhibition, 48 h
Answer each item with its documented TGI.
Response body: numeric value in µM, unit text excluded.

Reported TGI, compound CCCCCCCCCCCC1=NC(C)(C)CN1C(C)(C)CO : ____ 3.88

Another compound: COC(=O)c1c2c(c(C)[n+]([O-])c1C)C(=O)C=C(NCc1ccccc1)C2=O 2.82

Entry O=C(CCN1CCOCC1)/C(=C/c1ccccc1)c1ccccc1 please 21.5

Then COc1ccc(/C=C(/c2ccccc2)[N+](=O)[O-])c(OC)c1 ? 5.28

* * *

- Test system: ACHN renal
- Procedure Summary: NCI tumour cell line growth inhibition, 48 h; in the data active = GI50 below about 0.43 µM; inactive = the rest
// one of t (active), f (inactive), no free text

Could you please tell me the result logged for Cc1cn2c(/C=C3/C(=O)Nc4c3ccc3ccccc43)c(C(F)(F)F)nc2s1 in this assay? f

Next up: CCCCCCCCCCCC1=NC(C)(C)CN1C(C)(C)CO f

How about COc1ccc(-c2cc(=O)n(-c3nc4ccccc4[nH]3)[nH]2)cc1OC ? f

How about COc1c(C(C)=O)c(OCCCCOc2c(C(C)=O)c(OC)c3ccoc3c2OC)c(OC)c2occc12 ? f

Also Cc1ccc(/C=C(\C#N)c2cc3ccccc3n2C)cc1 ? f

Same read-out for C/C(=C\c1ccn(-c2ccccc2N)n1)[C@@H]1C[C@@H]2O[C@]2(C)CCC[C@H](C)[C@H](O)[C@@H](C)C(=O)C(C)(C)[C@@H](O)CC(=O)O1 ? t

* * *

For each record, write down the corresponding TGI.
- Tested on: UACC-257 melanoma
- Procedure Summary: NCI tumour cell line growth inhibition, 48 h

Could you share what TGI was measured for O=S(=O)(NC1CCCCC1)c1ccc2c(c1)OCCOCCOCCOCCO2 , tested on UACC-257 melanoma? > 100 µM

Same question for CCOC(=O)/C(C(N)=O)=C(\O)C(=O)/C(Br)=C(\O)c1ccccc1 please. 31.8 µM

Here is the next compound: N#CC1(C#N)C(C#N)(C#N)C1(C#N)C(N)=O > 100 µM

Field entry: O=c1cc(-c2ccccn2)[nH]c2cccc(F)c12 > 100 µM

Do the same for O=c1[nH]c(=O)n(C2CC(O)C(CO)O2)cc1Oc1ccccc1 (stereo not given) please > 100 µM

And what about the compound Nc1ccc(-c2nc3ccccc3s2)cc1Cl ? > 100 µM

Same thing, different compound: COC(=O)CCC(NC(=S)N/N=C(\C)c1ccc[nH]1)C(=O)OC (stereo not given) > 100 µM

Same question for O=C(COc1ccc(OCC(=O)N2C(=O)CC(=O)N(c3ccc(Cl)cc3)C2=S)cc1)N1C(=O)CC(=O)N(c2ccc(Cl)cc2)C1=S please. > 100 µM

Another compound to check: COc1cc(/C=C/c2ccc(C)cc2)cc(OC)c1OC 31.5 µM

Then what about the compound Cc1cccc2c(N)c3cccc(C(=O)NCC[N+](C)(C)Cc4ccc([N+](=O)[O-])s4)c3nc12 ? > 78 µM

* * *

- Tested on: HOP-92 NSCLC
- Procedure Summary: NCI tumour cell line growth inhibition, 48 h
Measure: TGI

Fill in: TGI of COC(C)(C)[C@@H](O)[C@H](O)C[C@H](C)C1=C2CC[C@@H]3[C@@]4(C)CC[C@@H](OC(C)=O)C(C)(C)[C@@H]4C[C@@H](OC4OC(COC(C)=O)C(O)C(O)C4O)[C@@]3(C)[C@]2(C)CC1 (stereo partly drawn) is ___ 25.8 µM

Entry CC(=O)n1cc(C2CC23N=C(c2ccccc2)OC3=O)c2ccccc21 (stereo not drawn) please 52.5 µM

Entry to check: O=C1c2cc(Cc3ccccc3)c(=O)c(Cc3ccccc3)cc2C(=O)c2cc(Cc3ccccc3)c(=O)c(Cc3ccccc3)cc21 > 100 µM

Proceed to COc1cccc(N=N/C(=N/NC(=O)c2ccc(C)cc2)c2ccc(N(CCC#N)CCC#N)cc2OC)c1 > 100 µM

Now give it for C=CC(=O)N1C/C(=C\c2ccc(Cl)c(Cl)c2)C(=O)/C(=C/c2ccc(Cl)c(Cl)c2)C1 too. 2.94 µM

And for COC(=O)[C@@H]1CS(=O)(=O)C(C(C)C)N1C(C)=O (stereo partly drawn) ? > 100 µM

Now give it for N#Cc1nc(-c2ccc(F)cc2)oc1S(=O)(=O)N1CCCCC1 too. 3.37 µM

One more compound: O=C(NCCN1CCOCC1)OCc1nc2nc(Cl)nc(N3CCOCC3)c2[nH]1 > 100 µM

And then N#Cc1c(-c2ccc(Cl)cc2)cc(-c2ccc(Nc3ccnc4cc(Cl)ccc34)cc2)[nH]c1=O , what is it? 61.2 µM

What do you get for OC1(c2ccccc2)C2CC=CC2C1(c1ccccc1)c1ccccc1 (stereo not drawn) ? > 100 µM

For CCCCc1ccc(Nc2ncc3ncn(COCCO)c3n2)cc1 then? 92.8 µM

And then NC(Cc1ccc(OCc2ccccc2)cc1)C(=O)NC(Cc1ccccc1)C(=O)Oc1c(Cl)c(Cl)c(Cl)c(Cl)c1Cl (stereo not drawn) , what is it? 25.8 µM

Entry COc1cc(CNc2nc3c(N)cc(C(F)(F)F)cc3nc2-c2ccccc2)cc(OC)c1OC please > 100 µM

Thanks! And CC(C)C1CO[C@]2(C)CCC(=O)N12 (stereo partly drawn) ? > 100 µM

Repeat for the following compound: O=C(/C(=C(/O)c1ccccc1)c1nc2ccccc2sc1=O)c1ccccc1 > 100 µM

Next up: Cc1cn(C2CCC(CO)(CF)O2)c(=O)[nH]c1=O (stereo not drawn) > 100 µM

Please answer likewise for COC(=O)[C@H](Cc1c[nH]c2ccccc12)NP(=O)(OCCC#N)OCC1OC(n2cc(C)c(=O)[nH]c2=O)CC1N=[N+]=[N-] (stereo partly drawn) > 100 µM

Would you mind doing O=[N+]([O-])c1ccc(NN=C2CN3CCN(C2)c2ccccc23)c([N+](=O)[O-])c1 as well? > 100 µM

* * *

- Test system: SF-268 CNS
- Procedure Summary: NCI tumour cell line growth inhibition, 48 h; in the data active = GI50 below about 0.43 µM; inactive = the rest
Could you please pick one outcome from this set? y = active, n = inactive

Kindly provide the recorded test outcome for the following molecule: CC1=CC2C(C(O)CC3(C)C2CC(C)C32OCOC23COCO3)C2(C)C/C(=C/O)C(=O)C=C12 (stereo not given) n

Now try Oc1c(C(Nc2ccccc2Br)c2ccccc2)ccc2cccnc12 (stereo not given) . n

Try CN(C)c1ccc(Nc2c3ccccc3nc3ccccc23)cc1 next. n

Query CCCn1c2c(c3c(O)cccc31)C(=O)c1ccccc1-2 next n

Try this molecule next: COc1ccccc1/C=C1\COc2ccc(-c3ccccc3)cc2C1=O n

Here is the next molecule: N#Cc1nc(-c2ccc(F)cc2)oc1S(=O)(=O)N1CCCCC1 n

Do the same for CCOc1ccc2c(-c3ccnc(Nc4cc(OC)cc(C(F)(F)F)c4)n3)cnn2n1 please n

// query: COc1ccc(/C=C(/c2ccccc2)[N+](=O)[O-])c(OC)c1 n

Try the molecule O=C(CCN1CCCC1)Nc1ccc2c(NCc3ccccc3)c3ccccc3nc2c1 n

Now give it for CCC[CH2][Sn]([CH2]CCC)([O]C(=O)c1cc(OC)c(OC)cc1OC)[O][Sn]([CH2]CCC)([CH2]CCC)[O]C(=O)c1cc(OC)c(OC)cc1OC too. y

* * *

- System: RXF 393 renal
- Procedure Summary: NCI tumour cell line growth inhibition, 48 h; in the data active means GI50 below about 0.43 µM; inactive means the rest
// allowed return values: Yes = active, No = inactive

Assay result, entry Cc1cn2c(/C=C3/C(=O)Nc4c3ccc3ccccc43)c(C(F)(F)F)nc2s1 — outcome? No

# repeat for COc1ccc(/C=C(/c2ccccc2)[N+](=O)[O-])c(OC)c1 No

Please answer likewise for CCCCNNC(=O)c1ccc(Br)cc1 No

Again, but for COc1cc2c3c(n(CCCN)c(=O)c2cc1OC)-c1ccc([N+](=O)[O-])cc1C3=O No

# iterate: Cc1c(CNc2ccc(C(=O)NC(CCCNC(=O)c3ccccc3C(=O)O)C(=O)O)cc2)cnc2nc(N)nc(N)c12 (stereo not drawn) Yes

Do the same for CO/N=C(\COc1ccc2c(=O)c3ccccc3oc2c1)c1ccccc1 please No

Another molecule to look at: COc1ccc2c(c1)nc(NNC(=O)c1cnccn1)c1cccn12 No

Repeat for the following molecule: O=C(NCCN1CCOCC1)OCc1nc2nc(Cl)nc(N3CCOCC3)c2[nH]1 No

Same thing, different molecule: CCCCCCCCCCCC1=NC(C)(C)CN1C(C)(C)CO No

Same question for O=C(CCN1CCCC1)Nc1ccc2c(NCc3ccccc3)c3ccccc3nc2c1 please. Yes

Request: COc1ccc(-c2cc(=O)n(-c3nc4ccccc4[nH]3)[nH]2)cc1OC No

Can you handle COC(C)(C)[C@@H](O)[C@H](O)C[C@H](C)C1=C2CC[C@@H]3[C@@]4(C)CC[C@@H](OC(C)=O)C(C)(C)[C@@H]4C[C@@H](OC4OC(COC(C)=O)C(O)C(O)C4O)[C@@]3(C)[C@]2(C)CC1 (stereo partly drawn) next? No

Now this one: CNC(=O)NCC1OC(n2cnc3c(NC(=O)Nc4ccccc4)ncnc32)C(O[Si](C)(C)C(C)(C)C)C1O[Si](C)(C)C(C)(C)C (stereo not drawn) No

Origin of the recorded values: PubChem BioAssay (NCI)
